- testName: MCF7 Cancer Cell Toxicity qHTS against the NCATS CANVASS Library (AID 1347369)
- experimentalContext: MCF7 viability, ATP luminescence (CellTiter-Glo), 72 h; series mostly up to 46 µM
Records with an inconclusive call do not appear. Active and inactive are the calls of the source. The call rests on the fitted dose curve; in most records, active means well fitted cell-killing curve with a large enough effect; inconclusive means small, poorly fitted or top-dose-only effect; inactive means no such curve, though single readings can be large or run the other way.
Outcome field: choose from active, inactive

Answered cases to consult:
[
  {
    "molecule": "Oc1ccc(/C=C2/c3cc(O)cc(O)c3C(c3ccc(O)cc3)[C@H]2c2cc(O)cc(O)c2)cc1 (stereo partly specified)",
    "labelValue": "inactive"
  },
  {
    "molecule": "Oc1ccc([C@H]2Oc3ccc(/C=C/c4cc(O)cc(O)c4)cc3C2c2cc(O)cc(O)c2)cc1 (stereo partly specified)",
    "labelValue": "inactive"
  },
  {
    "molecule": "COc1ccc2cc(NC(=O)C3=NO[C@H]4[C@H](O)C=C[C@@H](Cl)[C@@]4(O)C3)c(=O)oc2c1OC",
    "labelValue": "inactive"
  }
]

Ask | For CCC[C@@H](C)/C=C(\C)[C@H](O)[C@H](C)/C=C/CC[C@@H](O)[C@H](C)[C@H](O)[C@H](C)[C@H](O)[C@H](C)[C@H]1O[C@H]([C@H](C)C(=O)O)CC[C@@H]1C , which call appears in the assay record?
Reply | active

Ask | For C=C(NC(=O)c1csc(-c2nc3c(cc2O)-c2nc(cs2)C(=O)NC(C(C)O)C(=O)N/C(=C(\C)O)c2nc(cs2)C(=O)NC2c4nc(cs4)C(=O)NC(COC(=O)c4c5c6c(cccc6n4O)COC(=O)[C@@H](OC4C[C@](C)(O)[C@H](N(C)C)[C@H](C)O4)C2OC5)c2nc-3cs2)n1)C(N)=O (stereo partly specified) , which call appears in the assay record?
Reply | inactive

Ask | For O=Cc1ccc2n1C[C@@]1(C[C@H](O)[C@H](O)CO1)OC2 , which call appears in the assay record?
Reply | inactive
